tgt: T1, MBP-AtTZF1 TZF (Arabidopsis thaliana, UniProt O82307 129-195)
T1 sequence: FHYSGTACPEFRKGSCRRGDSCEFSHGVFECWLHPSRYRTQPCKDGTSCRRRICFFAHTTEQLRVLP
procedure-text: fluorescence anisotropy
reported-endpoint: Kd (µM)
Numbers only, in µM.

So what does the record say about Kd for UUUUUUUUUUUUUUUUUUU (ssRNA) [Fl-polyU] ? 7.37
